pIC50: −log10 of the molar value.
Heads up, these molecules all have pIC50 values measured for UniProtKB P08922.
Sequence (P08922 28-2347): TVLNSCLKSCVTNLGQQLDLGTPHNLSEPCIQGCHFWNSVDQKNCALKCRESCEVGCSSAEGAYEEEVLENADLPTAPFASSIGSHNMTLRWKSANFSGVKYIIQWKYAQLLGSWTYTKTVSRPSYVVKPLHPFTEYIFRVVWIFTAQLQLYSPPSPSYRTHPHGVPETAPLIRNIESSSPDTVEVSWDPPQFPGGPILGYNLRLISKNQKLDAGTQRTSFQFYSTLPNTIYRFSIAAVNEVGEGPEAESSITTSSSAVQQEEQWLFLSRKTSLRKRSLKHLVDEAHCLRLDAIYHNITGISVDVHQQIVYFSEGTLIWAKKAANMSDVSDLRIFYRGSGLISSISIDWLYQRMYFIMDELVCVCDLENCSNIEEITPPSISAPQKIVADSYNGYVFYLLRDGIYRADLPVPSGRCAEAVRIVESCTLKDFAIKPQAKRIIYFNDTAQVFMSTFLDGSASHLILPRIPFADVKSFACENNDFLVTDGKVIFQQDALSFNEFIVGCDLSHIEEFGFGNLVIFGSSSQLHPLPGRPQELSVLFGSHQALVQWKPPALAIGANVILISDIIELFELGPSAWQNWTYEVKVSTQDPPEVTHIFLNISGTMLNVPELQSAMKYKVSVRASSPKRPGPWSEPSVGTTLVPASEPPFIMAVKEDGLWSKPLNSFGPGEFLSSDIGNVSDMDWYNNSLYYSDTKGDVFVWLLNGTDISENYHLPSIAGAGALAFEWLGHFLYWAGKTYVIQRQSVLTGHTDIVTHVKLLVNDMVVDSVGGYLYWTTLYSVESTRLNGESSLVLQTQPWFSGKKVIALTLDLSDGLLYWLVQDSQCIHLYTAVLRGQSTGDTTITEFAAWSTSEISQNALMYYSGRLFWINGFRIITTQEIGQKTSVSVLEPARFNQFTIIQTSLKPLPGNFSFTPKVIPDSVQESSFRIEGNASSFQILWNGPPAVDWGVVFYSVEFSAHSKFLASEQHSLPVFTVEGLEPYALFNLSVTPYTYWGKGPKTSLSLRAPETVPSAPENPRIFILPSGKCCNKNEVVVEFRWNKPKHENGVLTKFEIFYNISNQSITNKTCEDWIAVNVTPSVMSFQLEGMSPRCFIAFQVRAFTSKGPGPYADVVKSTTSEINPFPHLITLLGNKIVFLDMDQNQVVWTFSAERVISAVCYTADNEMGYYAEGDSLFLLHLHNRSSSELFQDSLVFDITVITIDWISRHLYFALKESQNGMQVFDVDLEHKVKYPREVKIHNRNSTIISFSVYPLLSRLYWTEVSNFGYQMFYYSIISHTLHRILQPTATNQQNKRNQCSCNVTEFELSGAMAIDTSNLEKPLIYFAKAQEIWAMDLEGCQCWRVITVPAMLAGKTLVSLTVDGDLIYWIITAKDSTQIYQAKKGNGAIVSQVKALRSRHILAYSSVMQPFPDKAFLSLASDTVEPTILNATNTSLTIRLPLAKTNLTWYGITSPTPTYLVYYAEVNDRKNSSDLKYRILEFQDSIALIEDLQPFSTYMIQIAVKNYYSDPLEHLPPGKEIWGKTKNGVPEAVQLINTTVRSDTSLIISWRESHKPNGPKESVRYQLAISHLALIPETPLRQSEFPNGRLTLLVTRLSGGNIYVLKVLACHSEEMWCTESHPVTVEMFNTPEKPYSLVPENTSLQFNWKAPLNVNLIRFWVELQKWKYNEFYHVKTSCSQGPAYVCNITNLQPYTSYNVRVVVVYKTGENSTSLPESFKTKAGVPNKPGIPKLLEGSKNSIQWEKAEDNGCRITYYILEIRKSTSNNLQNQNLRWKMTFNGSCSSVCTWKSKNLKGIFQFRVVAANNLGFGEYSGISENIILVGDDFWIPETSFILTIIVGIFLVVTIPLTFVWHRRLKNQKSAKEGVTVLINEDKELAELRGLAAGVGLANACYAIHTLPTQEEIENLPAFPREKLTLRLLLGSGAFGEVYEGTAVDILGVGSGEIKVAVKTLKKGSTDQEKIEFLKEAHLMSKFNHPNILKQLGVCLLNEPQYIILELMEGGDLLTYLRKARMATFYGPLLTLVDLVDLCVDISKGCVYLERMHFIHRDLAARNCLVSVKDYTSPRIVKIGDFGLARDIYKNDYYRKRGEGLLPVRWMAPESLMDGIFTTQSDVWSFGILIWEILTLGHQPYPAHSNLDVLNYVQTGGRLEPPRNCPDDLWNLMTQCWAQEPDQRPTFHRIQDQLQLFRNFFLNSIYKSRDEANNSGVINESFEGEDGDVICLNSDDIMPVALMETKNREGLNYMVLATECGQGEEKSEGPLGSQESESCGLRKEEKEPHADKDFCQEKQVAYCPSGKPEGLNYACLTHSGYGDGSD
PARAMETER_MEASURED: pIC50

chemical_structure=CN1Cc2nn(C)cc2-c2cnc(N)c(c2)N2CCC[C@@H]2c2cc(F)ccc2C1=O recorded_value=8.89
chemical_structure=Cc1c2c(nn1C)CN(C)C(=O)c1ccc(F)cc1[C@H]1CCCN1c1cc-2cnc1N recorded_value=9.22

---

molecular target: ALK L1196M (Homo sapiens, UniProt Q9UM73, L1196M); assay: Invitrogen Z'-lyte or LanthaScreen kinase IC50 assay
Sequence (Q9UM73 19-1620 L1196M): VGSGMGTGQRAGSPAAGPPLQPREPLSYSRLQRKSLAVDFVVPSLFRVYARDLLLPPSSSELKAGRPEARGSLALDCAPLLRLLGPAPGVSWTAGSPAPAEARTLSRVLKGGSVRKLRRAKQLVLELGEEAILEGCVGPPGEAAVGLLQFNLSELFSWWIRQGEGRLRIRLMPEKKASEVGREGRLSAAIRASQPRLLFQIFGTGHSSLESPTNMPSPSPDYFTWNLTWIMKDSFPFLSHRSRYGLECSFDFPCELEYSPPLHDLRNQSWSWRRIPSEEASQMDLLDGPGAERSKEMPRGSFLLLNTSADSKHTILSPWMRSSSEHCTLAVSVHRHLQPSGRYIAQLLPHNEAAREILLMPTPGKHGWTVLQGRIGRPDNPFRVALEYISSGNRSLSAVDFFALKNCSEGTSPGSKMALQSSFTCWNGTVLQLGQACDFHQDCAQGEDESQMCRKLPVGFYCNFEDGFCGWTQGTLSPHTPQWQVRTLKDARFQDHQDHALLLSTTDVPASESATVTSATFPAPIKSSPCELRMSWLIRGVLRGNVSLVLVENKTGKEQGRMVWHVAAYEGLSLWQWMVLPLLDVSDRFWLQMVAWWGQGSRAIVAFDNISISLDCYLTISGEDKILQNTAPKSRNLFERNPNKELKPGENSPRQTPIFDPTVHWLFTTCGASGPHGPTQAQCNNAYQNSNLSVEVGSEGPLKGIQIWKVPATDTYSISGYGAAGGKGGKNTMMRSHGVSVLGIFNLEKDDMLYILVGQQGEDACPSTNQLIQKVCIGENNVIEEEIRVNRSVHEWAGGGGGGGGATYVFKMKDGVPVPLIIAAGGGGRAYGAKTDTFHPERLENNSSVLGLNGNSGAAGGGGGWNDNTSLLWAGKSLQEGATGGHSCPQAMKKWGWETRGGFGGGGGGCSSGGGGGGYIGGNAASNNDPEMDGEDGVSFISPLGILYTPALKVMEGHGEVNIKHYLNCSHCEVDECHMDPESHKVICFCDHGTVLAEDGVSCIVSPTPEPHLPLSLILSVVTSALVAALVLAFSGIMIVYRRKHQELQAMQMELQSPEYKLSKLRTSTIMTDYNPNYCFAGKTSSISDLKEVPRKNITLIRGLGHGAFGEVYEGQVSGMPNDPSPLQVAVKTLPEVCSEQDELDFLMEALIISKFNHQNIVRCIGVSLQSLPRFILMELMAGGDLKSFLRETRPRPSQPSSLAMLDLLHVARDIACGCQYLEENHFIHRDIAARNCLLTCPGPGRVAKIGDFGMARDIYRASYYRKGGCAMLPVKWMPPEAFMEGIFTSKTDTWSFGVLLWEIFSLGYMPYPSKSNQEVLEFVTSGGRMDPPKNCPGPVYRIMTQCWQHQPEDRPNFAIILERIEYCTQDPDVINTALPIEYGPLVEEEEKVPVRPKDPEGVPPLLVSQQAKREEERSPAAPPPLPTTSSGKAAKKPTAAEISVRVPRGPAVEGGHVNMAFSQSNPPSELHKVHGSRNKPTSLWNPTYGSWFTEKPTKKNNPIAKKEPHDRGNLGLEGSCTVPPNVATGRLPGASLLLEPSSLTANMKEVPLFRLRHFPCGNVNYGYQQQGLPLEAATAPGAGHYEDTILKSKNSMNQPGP
pIC50: −log10 of the molar value.
The following compounds are listed with their measured pIC50 values.
PARAMETER_MEASURED: pIC50

compound="Cn1cc2c(n1)CN(C1CC1)C(=O)c1ccc(F)cc1[C@H]1CCCN1c1cc-2cnc1N [Compound I-1e]" parameter_measured=pIC50 recorded_value=8.22
compound="COc1c2c(nn1C)CN(C)C(=O)c1ccc(F)cc1[C@H]1CCCN1c1cc-2cnc1N [Compound I-1b]" parameter_measured=pIC50 recorded_value=7.70
compound="Cc1c2c(nn1C)CN(C)C(=O)c1ccc(F)cc1[C@H]1CCCN1c1cc-2cnc1N [Compound I-1c]" parameter_measured=pIC50 recorded_value=8.52
compound="CN1Cc2nn(C)c(C#N)c2-c2cnc(N)c(c2)N2CCC[C@@H]2c2cc(F)ccc2C1=O [Compound I-1d]" parameter_measured=pIC50 recorded_value=8.52
compound="CN1Cc2nn(C)cc2-c2cnc(N)c(c2)N2CCC[C@@H]2c2cc(F)ccc2C1=O [Compound I-1a]" parameter_measured=pIC50 recorded_value=8.22
